Kindly supply the reported protein stability index values for the records listed here.
Test system: Saccharomyces cerevisiae
Experiment: protein stability index of tFT-peptide fusion (C-terminal peptide) (PSI (0-1 scale)); higher = more stable (slower turnover)
Conditions: genetic background: cdc53-1; temperature: 37 C
Form field (numeric): enter value without unit.

Reported protein stability index of GLVWSKCFFIVG : 0.705

Reported protein stability index of RNCSFRRIQLAM : 0.699

Reported protein stability index of FHFLFLFSLVSV : 0.316

Reported protein stability index of CWSSVGLSVCGC : 0.751

Reported protein stability index of CVLLVFLHLCLA : 0.392

Reported protein stability index of FLPFRVFNFSLV : 0.713

Reported protein stability index of VRVLPFCWCIVR : 0.14

Reported protein stability index of RLMLSWLALRRC : 0.665

Reported protein stability index of LDLSSLRCRYLL : 0.725

Reported protein stability index of YIFLPIALVFFP : 0.536

Reported protein stability index of GCLGYTLSCFTY : 0.64

Reported protein stability index of NLSYFFFSVLFF : 0.562

Reported protein stability index of SYVVVFVIFCVG : 0.281

Reported protein stability index of CLQYRACLILLT : 0.365

Reported protein stability index of KIHILVVQIATR : 0.134

Reported protein stability index of FCTSSRLLYCSA : 0.222

Reported protein stability index of DILCGRCMIVGA : 0.573

Reported protein stability index of ALCPPLPMLVVA : 0.03

Reported protein stability index of CICAFCSLNLLC : 0.774

====

Tested on: Saccharomyces cerevisiae
Experiment: protein stability index of tFT-peptide fusion (C-terminal peptide) (PSI (0-1 scale)); higher = more stable (slower turnover)
Conditions: genetic background: das1 deletion; temperature: 30 C
property.label: protein stability index
Form field (numeric): enter value without unit.

The recorded protein stability index with Saccharomyces cerevisiae for DNQPWQLARCGR [HRT1 C-terminal 12 aa] was 0.698

The recorded protein stability index with Saccharomyces cerevisiae for ADFLAKKGASRR [RNH1 C-terminal 12 aa] was 0.694

The recorded protein stability index with Saccharomyces cerevisiae for GGFFKKLAQLLK [MDG1 C-terminal 12 aa] was 0.704

The recorded protein stability index with Saccharomyces cerevisiae for NEQEINKIFEPE [HXT14 C-terminal 12 aa] was 0.694

The recorded protein stability index with Saccharomyces cerevisiae for TLDRASNCWRGT [YBL006W-A C-terminal 12 aa] was 0.709

The recorded protein stability index with Saccharomyces cerevisiae for TAFGISSCRDLA [YLR163W-A C-terminal 12 aa] was 0.707

The recorded protein stability index with Saccharomyces cerevisiae for MQLARRIRGQFI [CSE4 C-terminal 12 aa] was 0.691

The recorded protein stability index with Saccharomyces cerevisiae for TQLRYTSRGLYR [ECM30 C-terminal 12 aa] was 0.699

The recorded protein stability index with Saccharomyces cerevisiae for SCAKDILGEENF [BRE4 C-terminal 12 aa] was 0.687

The recorded protein stability index with Saccharomyces cerevisiae for EIIDNWEKYEQS [FAS1 C-terminal 12 aa] was 0.706

The recorded protein stability index with Saccharomyces cerevisiae for KTLWSRFIEHFV [MIM2 C-terminal 12 aa] was 0.746

The recorded protein stability index with Saccharomyces cerevisiae for TIISKGYAKIRD [TAF4 C-terminal 12 aa] was 0.68

The recorded protein stability index with Saccharomyces cerevisiae for ISLLSQFVYKGK [EXO1 C-terminal 12 aa] was 0.7

The recorded protein stability index with Saccharomyces cerevisiae for LHTLYLRPASAI [SSN8 C-terminal 12 aa] was 0.701

The recorded protein stability index with Saccharomyces cerevisiae for LLEAFLRKEQKV [YGR174W-A C-terminal 12 aa] was 0.596

The recorded protein stability index with Saccharomyces cerevisiae for ALGLAGVAMLFL [SED1 C-terminal 12 aa] was 0.694

The recorded protein stability index with Saccharomyces cerevisiae for NSEKDQVPILSS [SSK22 C-terminal 12 aa] was 0.702

The recorded protein stability index with Saccharomyces cerevisiae for VVQFLVNLVCHT [YGR114C C-terminal 12 aa] was 0.488

The recorded protein stability index with Saccharomyces cerevisiae for NKAPSWLLTALE [OCA1 C-terminal 12 aa] was 0.683

The recorded protein stability index with Saccharomyces cerevisiae for SNKLKGNPNQVF [MTG1 C-terminal 12 aa] was 0.721

The recorded protein stability index with Saccharomyces cerevisiae for TLKSTSSTNSPD [SMP1 C-terminal 12 aa] was 0.703

The recorded protein stability index with Saccharomyces cerevisiae for VATADIKNEDKN [BNA2 C-terminal 12 aa] was 0.671

The recorded protein stability index with Saccharomyces cerevisiae for INDWLSSWKRSK [CRR1 C-terminal 12 aa] was 0.756

The recorded protein stability index with Saccharomyces cerevisiae for QIIYYIARSKGL [MEC3 C-terminal 12 aa] was 0.665

The recorded protein stability index with Saccharomyces cerevisiae for FSSFKFLDTSYL [CKI1 C-terminal 12 aa] was 0.748

====

Test system: Saccharomyces cerevisiae
Assay: protein stability index of tFT-peptide fusion (C-terminal peptide) (PSI (0-1 scale)); higher = more stable (slower turnover)
Conditions: genetic background: wild type; temperature: 30 C
Kindly supply the reported protein stability index values for the records listed here.
Form field (numeric): enter value without unit.

Reported protein stability index of PLTPSPRPPPPS : 0.615

Reported protein stability index of DSDSVMPFERLM : 0.659

Reported protein stability index of GCWGRVLCGGSV : 0.695

Reported protein stability index of VGAWRGVLVGGG : 0.612

Reported protein stability index of FPSPPLPSSSTS : 0.708

Reported protein stability index of VCWCVVVLEFGL : 0.313

Reported protein stability index of FHFPHPFLPFPS : 0.666

Reported protein stability index of GRGGGSRIVGGV : 0.704

Reported protein stability index of HTRLCFSPPRGI : 0.686

Reported protein stability index of PPPLFPPSSLLP : 0.706

====

System: Saccharomyces cerevisiae
Experiment: protein stability index of tFT-peptide fusion (C-terminal peptide) (PSI (0-1 scale)); higher = more stable (slower turnover)
Conditions: genetic background: cdc34-1; temperature: 37 C
property.label: protein stability index

Reported protein stability index of IVWVSSFVCRSV : 0.508

Reported protein stability index of LFVFTYPFLSWL : 0.617

Reported protein stability index of VYFRYWLLVVVF : 0.0945

Reported protein stability index of SCFRFFFLFLFF : 0.192

Reported protein stability index of VPQMLVSVCLSN : 0.301

Reported protein stability index of PDPIFGEWVYMV : 0.579

Reported protein stability index of GGWFFWVGAWVV : 0.173

Reported protein stability index of LPLHTLLLCPPV : 0.447

Reported protein stability index of RKNIKISKAGIG : 0.283

Reported protein stability index of FVSVWVFLVSSF : 0.258

Reported protein stability index of LWGVGFLFVLVG : 0.186

Reported protein stability index of GLRFFVSSLLCR : 0.502

Reported protein stability index of FSVTTLTILCLR : 0.305

Reported protein stability index of AVSFVTLSIMVM : 0.0451

Reported protein stability index of IIIRVTILCEQF : 0.135

Reported protein stability index of GGGVGGAVVLFW : 0.651

Reported protein stability index of SYMWLVEVLLFI : 0.229

Reported protein stability index of DLRFAWLLSCFS : 0.44

Reported protein stability index of SVVLCRFVLRIF : 0.0423

====

Tested on: Saccharomyces cerevisiae
Assay: protein stability index of tFT-peptide fusion in wild type (PSI (0-1 scale)); higher = more stable (slower turnover)
Settings: genetic background: wild type
Kindly supply the reported protein stability index values for the records listed here.

Reported protein stability index of ARWRVGLWRHAS : 0.0927

Reported protein stability index of PDKRNHFIKLLN : 0.102

Reported protein stability index of TTSCGYKFRTNN : 0.255

Reported protein stability index of CTSCGYKFMTNN : 0.477

Reported protein stability index of RVTRLDKIYFRI : 0.283

Reported protein stability index of ILIQPLPVQFLN : 0.093

Reported protein stability index of RLIQPLPVQFDN : 0.668

Reported protein stability index of ARWRRGLWRGAS : 0.55

Reported protein stability index of KKHKKGQKEKIN : 0.124

Reported protein stability index of KKHKDGQKQKIN : 0.0686

Reported protein stability index of PDKRNHLIKILN : 0.137

Reported protein stability index of RLIQPLPVLFLN : 0.0545

Reported protein stability index of FSMRWTFRHWVN : 0.0837

Reported protein stability index of CTSCGYKMRTNN : 0.227

Reported protein stability index of RLEQPLPVQFLN : 0.0758

Reported protein stability index of VRGAVGGWRLVN : 0.157

Reported protein stability index of CLASLPILLFFR : 0.0826

Reported protein stability index of RLIQPLPFQFLN : 0.0405

Reported protein stability index of KKHKKGQKQKIND : 0.666

Reported protein stability index of PDFRNHLIKLLN : 0.112

Reported protein stability index of RVTRLDAIYFRL : 0.395

Reported protein stability index of GLYMCSVGGWFR : 0.644

Reported protein stability index of RSLRVLLPLYFD : 0.491

Reported protein stability index of RSLRVLLPLYFT : 0.265

Reported protein stability index of VRPAVGGWRLVG : 0.106

Reported protein stability index of VRGAVGGWRLWG : 0.534

Reported protein stability index of CLVSAPILLFFR : 0.11

Reported protein stability index of PSLAASIWRVVG : 0.143

Reported protein stability index of RLIQPLPVQFWN : 0.132

Reported protein stability index of FSMRWTFRYWVA : 0.202

Reported protein stability index of FSMRWTGRYWVN : 0.0626

Reported protein stability index of GLYLCSVGCWFR : 0.21

Reported protein stability index of ISMRWTFRYWVN : 0.059

Reported protein stability index of RVTRLDAIWFRI : 0.22

Reported protein stability index of AITLPMCPLLLI : 0.493

Reported protein stability index of KKHKNGQKQKIN : 0.145

Reported protein stability index of GLYMCSVGCWFF : 0.473

Reported protein stability index of RDTRLDAIYFRI : 0.563

Reported protein stability index of RSLRVLLPLYAR : 0.348

Reported protein stability index of PSLAASFWRVVGL : 0.683

Reported protein stability index of LVVYKSCVACIN : 0.218

Reported protein stability index of LVVYLSCMACIN : 0.0207

Reported protein stability index of RVTRLDAIYPRI : 0.693

Reported protein stability index of PDKRNHLIKLDN : 0.602

Reported protein stability index of ARWRVGLRRGAS : 0.672

Reported protein stability index of RSLRVLLPLYFM : 0.328

Reported protein stability index of NKHKKGQKQKIN : 0.122

Reported protein stability index of LVVYLGCVACIN : 0.135

Reported protein stability index of KKHYKGQKQKIN : 0.0621

Reported protein stability index of RLIQFLPVQFLN : 0.00974

Reported protein stability index of RLIQPHPVQFLN : 0.0682

Reported protein stability index of FSMRWTFRYWQN : 0.106

Reported protein stability index of LKILRQKMNHQNF : 0.616

Reported protein stability index of GLYMLSVGCWFR : 0.246

Reported protein stability index of RLIQKLPVQFLN : 0.0183

Reported protein stability index of CTSCGYKFETNN : 0.656

Reported protein stability index of AITLPSCPLLLR : 0.304

Reported protein stability index of CTSTGYKFRTNN : 0.214

Reported protein stability index of ARHRVGLWRGAS : 0.603

Reported protein stability index of PDKRNHLIKLLL : 0.332

Reported protein stability index of RSLRVHLPLYFR : 0.157

Reported protein stability index of CTSKGYKFRTNN : 0.269

Reported protein stability index of CLVSGPILLFFR : 0.217

Reported protein stability index of FSMRWTFRYWVNY : 0.114

Reported protein stability index of RVTRSDAIYFRI : 0.525

Reported protein stability index of RMLRVLLPLYFR : 0.359

Reported protein stability index of DDKRNHLIKLLN : 0.146

Reported protein stability index of CTSCGYKFRTNNS : 0.683

Reported protein stability index of ARWRVGLFRGAS : 0.655

Reported protein stability index of LVVYLSCVACVN : 0.0169

Reported protein stability index of RLIMPLPVQFLN : 0.0368

Reported protein stability index of RSLRVLLPLRFR : 0.41

Reported protein stability index of CTSCGYKERTNN : 0.632

Reported protein stability index of RWIQPLPVQFLN : 0.0536

Reported protein stability index of AITLPMCPLLKR : 0.645

Reported protein stability index of GLYMCSVGCWVR : 0.215

Reported protein stability index of RLIQPLSVQFLN : 0.0547

Reported protein stability index of CTECGYKFRTNN : 0.357

Reported protein stability index of RSLRYLLPLYFR : 0.378

Reported protein stability index of PDKRNHLILLLN : 0.114

Reported protein stability index of PDKRNHLKKLLN : 0.101
